Property: Rice plant response rating; scope: individual compounds
System: rice (Oryza saliva)
Protocol Description: Test C flooded paddy test
Assay type: in vivo
Run Conditions: Flooded Paddy; Rate 250 g/ha; scale 0 to 100, 0 no effect, 100 complete control
When you answer, write just the number.

These solved cases illustrate the format of a correct answer.
> print(dat)
                                   compound  numeric.result
1  CCC(CC)c1ccn(C2OCN(c3cccc(OC(F)(F)F)c3)C2=O)n1 (centres unmarked)              30
2  CCCCC(CCCC)c1ccn(C2OCN(c3cccc(C(F)(F)F)c3)C2=O)n1 (centres unmarked)               0
3  CCC(C)c1ccn(C2CCN(c3ccc(Cl)c(OC)c3)C2=O)n1 (centres unmarked)              50
4  O=C1C(n2ccc(C3CCC3)n2)SCN1c1cccc(OC(F)(F)F)c1 (centres unmarked)              50
5  CC(C)(C)c1ccn(C2CCN(c3cc(C(F)(F)F)cc(C(F)(F)F)c3)C2=O)n1 (centres unmarked)               0
6  CC(C)Oc1cccc(N2CCC(n3ccc(C(C)C)n3)C2=O)c1 (centres unmarked)              60
7  Cc1ccc(N2CCC(n3ccc(C(C)(C)C)n3)C2=O)cc1OCCI (centres unmarked)               0
8  CC(C)(C)c1ccn(C2OCN(c3cccc(OC(F)(F)F)c3)C2=O)n1 (centres unmarked)              50

Enter recorded Rice plant response rating with rice (Oryza saliva) for CCCC(C)c1ccn(C2OCN(c3cccc(C(F)(F)F)c3)C2=O)n1 (centres unmarked) here.
20

Please look at CCCC(C)c1ccn(C2CCN(c3cccc(C(F)(F)F)c3)C2=O)n1 (centres unmarked) and tell me its recorded Rice plant response rating on rice (Oryza saliva).
50

With rice (Oryza saliva) as the test system, provide measured Rice plant response rating for this compound: O=C1C(n2ccc(C3CCCCC3)n2)OCN1c1cccc(C(F)(F)F)c1 (centres unmarked)
0
